- assayExplanation: Plasma level in mice
- Type: in vivo, male mice (ddY)
- conditionsUsed: mouse, plasma; 25 mg/kg, im, single dose; 2 hour; read-out: Average plasma conc.
Counter-ions that a name gives are not always drawn.
reportedMetric: concentration at 2 h
Kindly report the value followed by its unit.

[Q] I am curious: what concentration at 2 h value has been reported for CC1(C)S[C@@H]2[C@H](NC(=O)[C@H](NC(=O)c3c[nH]c4nc(N5CCN(C=O)CC5)ncc4c3=O)c3ccc(O)cc3)C(=O)N2[C@H]1C(=O)O [Compound 1, sodium salt] ?
[A] 9570 ng/mL

###

- assayExplanation: Urinary excretion in mice
- Assay type: in vivo, male mice (ddY)
- conditionsUsed: mouse, urine, im, 25 mg/kg, im, single dose; 0-3 hour; read-out: cr: cumulative urinary recovery
Counter-ions that a name gives are not always drawn.
reportedMetric: dose excreted at 3 h (%)
Quick note: give the figure in %, leave out the unit.

[Q] What value of measured dose excreted at 3 h is listed for CC1(C)S[C@@H]2[C@H](NC(=O)[C@H](NC(=O)c3c[nH]c4nc(N5CCN(C=O)CC5)ncc4c3=O)c3ccc(O)cc3)C(=O)N2[C@H]1C(=O)O [Compound 1, sodium salt] ?
[A] 28.2
